target: 125I-PDGF-BB (125I-radiolabeled platelet-derived growth factor-BB) (UniProt P01127 82-190, 125I label (site not stated)); experiment: radioligand binding
Sequence (P01127 82-190): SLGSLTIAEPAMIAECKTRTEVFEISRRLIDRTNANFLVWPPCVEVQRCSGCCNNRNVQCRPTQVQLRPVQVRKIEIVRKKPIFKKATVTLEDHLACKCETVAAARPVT
# key: entry, value: Kd
All answers are understood in nM, so give the number only.

{"binder": "QLISHQQYGHQEVTRFDFTTTSTST [P2 (FN680-704)]", "value_kind": "Kd", "measured_number": 110}

Assign Kd to the following record: QPSHISKYILRWRPKNSVGRWKEAT [P1 (FN634-658)]
250
